Test system: tetA promoter (PtetA)-lacZ reporter in E. coli KM3
Type: cell-based
Conditions: Table 6, reverse repressor hits; sulfometuron, same plate assay format as Table 4
observation.type: relative β-galactosidase activity, inducer Sm
Numbers only.

# annotated cases, reported relative β-galactosidase activity, inducer Sm shown
{"molecule": "L1-41: library L1 reverse repressor hit (SEQ ID NO: 1206-1213) (protein, rSuR L1-41) MGSRLDKSKVINSALELLNEVGIEGLTTRKLAQKLGVEQPTLYWHVKNKRALLDALAIEMLDRNQTHFCPLEGESWQDFLRNNAKSWRCALLSHRDGAKVMLGTRNTEKQYETAENGLAFLCQQGFSLENALYACRAVWTFTLGCVLDDQETQVAKEERETPTSDSMPPLLRQAMELKDHQGAEPAFLFGLELIICGLEKQLKCESGS", "measured.number": 0.67}
{"molecule": "L1-36: library L1 reverse repressor hit (SEQ ID NO: 1206-1213) (protein, rSuR L1-36) MGSRLDKSKVINSALELLNEVGIEGLTTRKLAQKLGVEQPTLYWHVKNKRALLDALAIEMADRHHTHFCPLEGESWQDFLRNAAKSMRCALLSHRDGAKVRLGTAWTEKQYETHENVLAFLCQQGFSLENALYALKAVSGFTLGCVLKDQEMQVAKEERETPTTDSMPPLLRQATELVDHQGAEPAFLFGLELIICGLEKQLKCESGS", "measured.number": 0.50}
{"molecule": "L1-33: library L1 reverse repressor hit (SEQ ID NO: 1206-1213) (protein, rSuR L1-33) MGSRLDKSKVINSALELLNEVGIEGLTTRKLAQKLGVEQPTLYWHVKNKRALLDALAIEMLDRHATHFCPLEGESWQDFLRNNAKSMRCALLSHRDGAKVQLGTAATEKQYETLENKLAFLCQQGFSLENALYAHSAVTQFTLGCVLRDQEGQVAKEERETPTTDSMPPLLRQARELRDHQGAEPAFLFGLELIICGLEKQLKCESGS", "measured.number": 5.02}
{"molecule": "L1-18: library L1 reverse repressor hit (SEQ ID NO: 1206-1213) (protein, rSuR L1-18) MGSRLDKSKVINSALELLNEVGIEGLTTRKLAQKLGVEQPTLYWHVKNKRALLDALAIEMLDRHLTHFCPLEGESWQDFLRNNAKSMRCALLSHRDGAKVWLGTGFTEKQYETKENRLAFLCQQGFSLENALYAIRAVSRFTLGCVLQDQEPQVAKEERETPTTDSMPPLLRQAVELFDHQGAEPAFLFGLELIICGLEKQLKCESES", "measured.number": 0.94}
{"molecule": "L1-21: library L1 reverse repressor hit (SEQ ID NO: 1206-1213) (protein, rSuR L1-21) MGSRLDKSKVINSALELLNEVGIEGLTTRKLAQKLGVEQPTLYWHVKNKRALLDALAIEMLDRHATHFCPLEGESWQDFLRNNAKSFRCALLSHRDGAKVCLGTAGTEKQYETLENCLAFLCQQGFSLENALYARSAVVCFTLGCVLFDQEMQVAKEERETPTTDSMPPLLRQAAELLDHQGAEPAFLFGLELIICGLEKQLKCESGS", "measured.number": 2.39}

Request: Tell me its relative β-galactosidase activity, inducer Sm given L1-34: library L1 reverse repressor hit (SEQ ID NO: 1206-1213) (protein, rSuR L1-34) MGSRLDKSKVINSALELLNEVGIEGLTTRKLAQKLGVEQPTLYWHVKNKRALLDALAIEMADRHNTHFCPLEGESWQDFLRNAARSMRCALLSHRDGAKVYLGTARTEKQYETTENVLAFLCQQGFSLENALYAVRAVPRFTLGCVLLDQERQVAKEERETPTTDSMPPLLRQARELTDHQGAEPAFLFGLELIICGLEKQLKCESGS as the entry.
Result: 2.00
